Experiment: HPLC lipophilicity on cholesterol (Chol) stationary phase
Assay type: physicochemical
Details: Table S3; MeOH 0.35 v/v in mobile phase, pH 7.4
PROPERTY NAME: Log k Chol

a: O=C(COc1ccccc1)NNC(=S)Nc1ccccc1Cl
b: O=C(COc1ccccc1)NNC(=S)Nc1ccc(Br)cc1
Short answer wanted: higher Log k Chol, a or b ? Give the label of your selection.
b

a: CSc1ccc(NC(=S)NNC(=O)COc2ccccc2)cc1
b: O=C(COc1ccccc1)NNC(=S)Nc1ccccc1
Lab note: check whether a or b has the lower measured Log k Chol. Give the label of your selection.
b
(b: 0.857, a: 1.434)
